Read-out: matrix metalloproteinase-10 (MMP10), MMP10 (gene 4319)
Assay: LTEA_HepaRG_MMP10: Life Technologies and Expression Analysis (LTEA) Assay for matrix metalloproteinase-10 (MMP10) using HepaRG (AID 2283517)
Conditions: mRNA level, 48 h; actives raise or lower the signal
The source made the active and inactive calls. The calls were made as follows: active = hit-call score of the fitted dose curve at least 0.9, where 1 is the maximum; inactive = score below 0.9.
Outcomes: t (active), f (inactive)

compoundSmiles: O=c1ccc2ccccc2o1
class: f

compoundSmiles: CCCCCCCCCCCO
class: f

compoundSmiles: CC(C)(O)c1ccc(CNC(=O)c2cccnc2Oc2ccc3nonc3c2)cc1
class: f

compoundSmiles: CC(C)(C)c1cc(/C=C2\SC(N)=NC2=O)cc(C(C)(C)C)c1O
class: t

compoundSmiles: Cc1cc(F)ccc1-c1cc(N2CC[C@@H](O)[C@H]2CO)ncc1N(C)C(=O)C(C)(C)c1cc(C(F)(F)F)cc(C(F)(F)F)c1
class: t

compoundSmiles: O=C1CCC(C2CCCCC2)CC1
class: f

compoundSmiles: O=C1c2ccccc2C(=O)N1CCc1noc(-c2ccc(CN3CCCCCC3)s2)n1
class: f

compoundSmiles: Cc1c2ccccc2c(C)c2c1ccc1ccccc12
class: t

compoundSmiles: CC(C)(C)c1csc(-c2cc3cc(OCc4ccccc4CC(=O)O)ccc3o2)n1
class: t

compoundSmiles: O=CCCCC=O
class: f

compoundSmiles: Cc1ccc2oc(CN(Cc3ccccc3)C(=O)Nc3c(F)cc(F)cc3F)c(-c3ccc(Cl)cc3)c2c1
class: f

compoundSmiles: O=c1[nH]sc2ccccc12
class: f
